Known GI50 of a selection of compounds
System: SW-620
measurement description: NCI tumour cell line growth inhibition, 48 h
Active and inactive are the calls of the source. Cut-off read from the data, not from the text of the source: active = GI50 up to about 1.1 µM and inactive = higher.
measurement label: GI50

>>> experimental_result("NC1=Nc2ccccc2Sc2nnc(-c3ccc(Cl)cc3)n21")
"57.1 µM (inactive)"
>>> experimental_result("O=C1C2=C(c3ccccc31)C(c1ccccc1)NC(S)=N2 (configuration not stated)")
"31 µM (inactive)"
>>> experimental_result("Oc1nc2cc3nc(O)c(O)nc3cc2nc1O")
"> 100 µM (inactive)"
>>> experimental_result("O=C1CCC2(c3ccccc3)OCC([C@@H](O)c3ccccc3)N12 (some centres not stated)")
"> 100 µM (inactive)"
>>> experimental_result("COC(=O)C(Br)C1CCc2ccccc21 (configuration not stated)")
"> 100 µM (inactive)"
>>> experimental_result("C#CCOC(=O)C=[N+]=[N-]")
"> 10 µM (inactive)"
>>> experimental_result("COc1cc2oc(=O)cc(C)c2cc1O")
"> 100 µM (inactive)"
>>> experimental_result("O=[N+]([O-])c1ccc(-n2nc3ccc4nonc4c3n2)cc1")
"> 100 µM (inactive)"
>>> experimental_result("O=C1C=C(Nc2ccc(Cl)cc2Cl)c2ccccc2C1=O")
"39.5 µM (inactive)"
>>> experimental_result("Cc1ccc(/C(=C/C=C(C#N)C#N)Sc2cc(Cl)ccc2Cl)cc1")
"1.66 µM (inactive)"
>>> experimental_result("O=C1/C(=C/c2ccccc2)N=C(c2ccccc2)N1C1Nc2cc3c(cc2S1)NC(N1C(=O)/C(=C/c2ccccc2)N=C1c1ccccc1)S3 (configuration not stated)")
"3.8 µM (inactive)"
>>> experimental_result("FC(F)(F)C1(c2ccccc2)SCc2nc3ccccc3n21 (configuration not stated)")
"> 100 µM (inactive)"
